Experiment: yeast display, Sf9 membrane polyspecificity reagent, FACS + sequencing; frameworks hold sequencing errors
recorded endpoint: polyreactivity (PSR sort gate)

Would you please look over these solved cases?
QVQLVESGGGLVQAGGSLRLSCAASGITFIKNAMGWYRQAPGKERELVAAISRSGGRTYYADSVKGRFTISRDNAKNTVYLQMNSLKPEYTAVYYCAAVTQRSYIYDYWGQGTQVTVSS high polyreactivity
QVQLVESGGGIVQAGGSLRLICAASGSIFNGYALGWYRQAPGKERDLVAAISWRGGTTYYADSVKGRFSISRDTAKNTVYLQMNSLKPEDTAVYYCAARHFARMGYWGQGTQVTVSS high polyreactivity
QVQLVESGGGLVQAGGSLRLSCAASGRILGTYAMGWYRQAPGKERELVAAISGSGGDTYYADSVKGRFTISRDNAKNTVYLQMNSLKPEDTAVYYCAAEVPFTGGFFKYYYWGQGTQVTVSS low polyreactivity
QVQLVESAGGLVQAGGSLRLSCAASGSTLHYYAMGRYRQAPGKERELVAGISGSGGSTYYADSVKGRFTISRDNAKNTVYLQMNSLKPEDTAVYYCAADAYVSSQPMDYWGQGTQVTVSS high polyreactivity

According to the records, this sequence QVQLVESAGGLVQAGGSHRLSCPASGSIFDYNPMGWYTQAPGKESELVAAITSGGSTNYADSVKGRFTISRDNAKNTVYLHMNSLKPEDTAVYYCAADHDYYPSNLDFWGQGTQVTVSS displays polyreactivity (PSR sort gate) of low polyreactivity
